Measured On: Human TRPV3 (Homo sapiens)
Sequence (Q8NET8 1-790): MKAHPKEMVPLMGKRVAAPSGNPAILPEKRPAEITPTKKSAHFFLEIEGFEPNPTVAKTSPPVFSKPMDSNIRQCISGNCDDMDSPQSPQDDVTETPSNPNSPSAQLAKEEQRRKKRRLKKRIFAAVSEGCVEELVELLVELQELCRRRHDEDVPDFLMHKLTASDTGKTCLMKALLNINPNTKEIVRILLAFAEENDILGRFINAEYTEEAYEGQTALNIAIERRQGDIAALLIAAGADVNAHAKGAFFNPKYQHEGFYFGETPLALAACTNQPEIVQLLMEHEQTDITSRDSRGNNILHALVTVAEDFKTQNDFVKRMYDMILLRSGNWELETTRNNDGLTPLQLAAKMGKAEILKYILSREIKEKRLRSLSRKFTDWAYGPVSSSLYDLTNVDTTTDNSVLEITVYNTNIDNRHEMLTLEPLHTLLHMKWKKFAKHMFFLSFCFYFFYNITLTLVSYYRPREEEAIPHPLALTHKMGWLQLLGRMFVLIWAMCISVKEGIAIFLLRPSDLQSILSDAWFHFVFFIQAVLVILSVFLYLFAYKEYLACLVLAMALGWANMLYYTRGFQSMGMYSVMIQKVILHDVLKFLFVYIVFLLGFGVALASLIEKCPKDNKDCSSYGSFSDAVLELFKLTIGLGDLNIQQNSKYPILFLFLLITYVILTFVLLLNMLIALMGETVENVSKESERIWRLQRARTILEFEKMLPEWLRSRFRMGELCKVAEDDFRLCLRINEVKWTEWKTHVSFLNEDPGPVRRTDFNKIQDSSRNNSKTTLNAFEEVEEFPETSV
Assay Overview: 45Calcium uptake assay: inhibition of 2-APB induced cellular uptake of radioactive calcium in human TRPV3 expressing CHO cells
Assay Conditions: 2-APB 500 μM
Property Measured: IC50

Known results for compounds:
- Compound Smiles: "COc1cccc(/C=C/c2oc3ccccc3c(=O)c2-c2ccc(C(F)(F)F)cc2)c1OCC1CC1"
  IC50: "150 to 1000 nM"
- Compound Smiles: "COc1cccc(/C=C/c2oc3ccccc3c(=O)c2-c2ccc(C#N)cc2)c1OCC(C)(C)C"
  IC50: "50 to 150 nM"
- Compound Smiles: "COc1cccc(/C=C/c2oc3ccc(F)cc3c(=O)c2-c2ccc(C#N)cc2)c1OCC(C)C"
  IC50: "< 50 nM"

Now for another entry.
Tested on Human TRPV3 (Homo sapiens): COc1cccc(/C=C/c2oc3ccc(F)cc3c(=O)c2-c2ccc(C#N)cc2)c1OCC1CC1 . Observed IC50: 150 to 1000 nM
